B1: H2-Kb / B14 (parent)
chain 1: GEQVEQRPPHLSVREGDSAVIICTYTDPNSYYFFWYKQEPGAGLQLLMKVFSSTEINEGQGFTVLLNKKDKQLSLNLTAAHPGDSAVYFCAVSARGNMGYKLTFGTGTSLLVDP
chain 2: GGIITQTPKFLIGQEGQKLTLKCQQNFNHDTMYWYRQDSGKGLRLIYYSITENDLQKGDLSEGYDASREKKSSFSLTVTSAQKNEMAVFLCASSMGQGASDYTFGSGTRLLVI
chain 3: not shown
chain 4: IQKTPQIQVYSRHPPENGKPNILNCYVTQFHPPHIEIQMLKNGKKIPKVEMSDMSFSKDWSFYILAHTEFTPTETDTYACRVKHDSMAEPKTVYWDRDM
chain 5: SIINFEKL

# Variants of: B1
# Protocol: % of reporter cells activated (NFAT-GFP), raw; also: test concentration or dose not given here
# Measurement Setup: with B14; scale: % of reporter cells activated
Overview of reported ratio to parent across a group of variants:
# respond with the number and nothing more

Sample answers from the record:
Req: Which ratio to parent value is on record for chain 5 L8C ?
Resp: 1.41

Req: Which ratio to parent value is on record for chain 5 N4S ?
Resp: 1.1

Req: Which ratio to parent value is on record for chain 5 I3K ?
Resp: 1.34

Req: Which ratio to parent value is on record for chain 5 I2S ?
Resp: 1.08

Continuing:
Req: Which ratio to parent value is on record for chain 5 I2L ?
Resp: 1.73

Req: Which ratio to parent value is on record for chain 5 I3S ?
Resp: 1.6

Req: Which ratio to parent value is on record for chain 5 E6Y ?
Resp: 0.853

Req: Which ratio to parent value is on record for chain 5 F5S ?
Resp: 1.56

Req: Which ratio to parent value is on record for chain 5 S1G ?
Resp: 0.596

Req: Which ratio to parent value is on record for chain 5 N4E ?
Resp: 1.33

Req: Which ratio to parent value is on record for chain 5 F5H ?
Resp: 0.96

Req: Which ratio to parent value is on record for chain 5 N4P ?
Resp: 1.38

Req: Which ratio to parent value is on record for chain 5 F5E ?
Resp: 1.08

Req: Which ratio to parent value is on record for chain 5 I3A ?
Resp: 1.33

Req: Which ratio to parent value is on record for chain 5 L8Q ?
Resp: 1.24

Req: Which ratio to parent value is on record for chain 5 F5K ?
Resp: 0.636

Req: Which ratio to parent value is on record for chain 5 K7P ?
Resp: 1.64

Req: Which ratio to parent value is on record for chain 5 S1K ?
Resp: 0.564

Req: Which ratio to parent value is on record for chain 5 F5A ?
Resp: 1.33

Req: Which ratio to parent value is on record for chain 5 L8M ?
Resp: 0.773

Req: Which ratio to parent value is on record for chain 5 F5P ?
Resp: 0.791

Req: Which ratio to parent value is on record for chain 5 S1E ?
Resp: 0.867

Req: Which ratio to parent value is on record for chain 5 F5C ?
Resp: 1.96

Req: Which ratio to parent value is on record for chain 5 K7D ?
Resp: 0.791

Req: Which ratio to parent value is on record for chain 5 L8G ?
Resp: 1.38
